molecular target: pooled human IgG
Entry flag: Met if Enzyme Activity Endpoint Assay: IgG reaches 8 ng/µL; Not met if it does not.

>>> assigned_category("PRT-23 (protein) MANQEIRYSEVTPYHVTSVWTKGVTPPANFTQGEDVFHAPYVANQGWYDITKTFNGKDDLLCGAATAGNMLHWWFDQNKDQIERYLKEHPEKQKINFNGEQMFDVKEAIDTKNSQTDSKLFEYFKEKAFPYLSTKHLGVFPDHVIDMFINGYRLSLTNHGPTPVKEGSKDPRGGIFDAVFTRGDQSKLLTSRHDFKEKNLKEISDLIKKELTEGKALGLSHTYANVRINHVINLWGADFDSNGNLEAIYVTDSDSNASIGMKKYFVGVNSAGKVAISAKEIKEDNIGAQVLGLFTLSTGQDIWNQTN")
"Met"
>>> assigned_category("PRT-26 (protein) MANQEIRYSEVTPYHVTSVWTKGVTPPANFTQGEDVFHAPYVANQGWYDITKTFNGKDDLLCGAATAGNMLHWWFDQNKDQIERYLKEHPEKQKINFNGEQMFDVKEAIDTKDSQTDSKLFEYFKEKAFPYLSTKHLGVFPDHVLDMFINGYRLSLTNHGPTPVKEGSKDPRGGIFDAVFTRGDQSKLLTSRHDFKEKTLKEISDLIKQELTEGKALGLSHTYANVRINHVINLWGADFDSEGNLKAIYVTDSDSNASIGMKKYFVGVNSAGKVAISAKEIKEDNIGAQVLGLFTLSTGQDIWNQTN")
"Met"
>>> assigned_category("PRT-548 (protein) MANQEIRYSEETPKTITSVWTKGVTPPTDFIKNEDVLHAPYIANQGWYDITKTFNGKDDLLCGAATAGNMLHWWFDQNKEEIENYLKKHPEKQKINFNGEQMFDVKEAIDTKDSQTDSALFEYFKDKAFPYLSTKHLGVFPDHVIDMFINGYRLSLTNHGPTPVKRGTKDPRGGIFDAVFTRGDQTKLLTARHDFKEKTLNEISDLIKQELTEGKALGLSHTYANVRINHVINLWGADFNSEGNLEAIYVTDSDSNASIGMKKYYVGVNAAGKVAISAKEIEGDNIGAQVLGLFTLSTGQDIWEQTNLEHHHHHH")
"Not met"
>>> assigned_category("PRT-560 (protein) MANQEIRYSEETPKTITSVWTKGVTPPTDFIYNEDVLHAPYIANQGWYDITKTFNGKDDLLCGAATAGNMLHWWFDQNKEQIERYLKKHPEKQKINFNGEQMFDVKEAIDTKDSQTDSALFEYFKDKAFPYLSTKHLGVFPDHVIDMFINGYRLSLTNHGPTPVKRQTKDPRGGIFDAVFTRGDQSKLLTSRHDFKEKTLKEISDLIKQELTEGKALGLSHTYANVRINHVINLWGADFDAEGNLEAIYVTDSDSNASIGMKKYYVGVNSAGKVAISAKEIEGDNIGAQVLGLFTLSTGQDIWEQTNLEHHHHHH")
"Met"
>>> assigned_category("PRT-47 (protein) MANQEIRYSEVTPYHVTSVWTKGVTPPANFTQGEDVFHAPYVANQGWYDINKTFNGGDDLLCGAATAGNMLHWWFDQNKDQIDRYLKEHPEKAKINFNGEQMFDVKEAIDTKNDQTNSKLFEYFKEKAFPYLSTKHLGVFPDLVLDMFINGYRLSLTNHGPTPVKEGSKDPRGGFFDAVFTRGDQSKLLTSRHDFKEKNLKEISDLIKKELTEGKALGLSHTYANVRINHVINLWGADFDSNGNLKAIYVTDSDSNASVGMKKYFVGVNSAGKVAISAKEIKEDNIGAQVLGLFTLSTGQDSWNQTN")
"Met"

input: API: above_or_equal(metric=Enzyme Activity Endpoint Assay: IgG, cutoff=8 ng/µL) for item PRT-286 (protein) MVTSVWTKGVTPPAKFTQGEDVFHAPYDANQGWYDITKTFNGKDDLLCGAATAGNMLHWWFDQNKEKIEAYLKKHPDKQKIMFGDQELLDVRKVINTKGDQTNSELFNYFRDKAFPNLSARRIGVMPDLVLDMFINGYYLNVYKTQTTDVNRTYQEKDRRGGIFDAVFTRGDQSKLLTSRHDFKEKNLKEISDLIKKELTEGKALGLSHTYANVRISHVINLWGADFDSNGNLKAIYVTDSDSNASIGMKKYFVGVNSSGKVAISAKEIKEDNIGAQVLGLFTLSTGQDSWNQTN
output: Not met

input: Entry PRT-530 (protein) MANQEIRYSEETPKTITSVWTKGVTPPTDFIQNEDVLHAPYIANQGWYDITKTFNGKDDLLCGAATAGNMLHWWFDQNKEEIENYLKKHPEKQKINFNGEQMFDVKEAIDTKDSQTDSALFEYFKDKAFPYLSTKHLGVMPDLVLDMFINGYYLSVGKHGPTPVKRGTKDPRGGIFDAVFTRGDQSKLLTARHDFKEKTLNEISDLIKQELTEGKALALSHTYANVRINHVINLWGADFNSEGNLEAIYVTDSDSNASIGMKKYYVGVNAAGKVAISAKEIEGDNIGAQVLGLFTLSTGQDIWEQTNLEHHHHHH : is its Enzyme Activity Endpoint Assay: IgG no less than 8 ng/µL?
output: Met
